The measured values listed here are drawn from PubChem BioAssay (NCATS).

# reported Potency; entries follow
- PROTOCOL_DESCRIPTION: Quantitative High-Throughput drug screen in 47 multiple myeloma cell lines against the NCATS MIPE library collection: SKMM1_PLB cell viability assay (AID 1919863); note: potency is the fitted concentration of half-maximal effect; nearly all actives have a fitted effect of over 35% in size
- CONDITION_DESCRIPTION: SKMM1 myeloma viability, CellTiter-Glo ATP, 48 h
Records with an inconclusive call do not appear. Active and inactive are the calls of the source. Calls come from the whole dose curve; as a rule, active = well fitted cell-killing curve with a large enough effect; inconclusive = small, poorly fitted or top-dose-only effect, or effect the other way; inactive = no such curve, though single readings can be large or run the other way.
READOUT_TYPE: Potency

COMPOUND	RESULT
CC(=O)Nc1ccc([C@H](C)C(=O)Nc2ncc(C(C)C)s2)cc1	8.33 µM (active)
CC(C)C(=O)Nc1ncc(-c2cc(C(F)F)nn2-c2c(Cl)cccc2Cl)s1	16.6 µM (active)
O=C1c2ccccc2-[n+]2ccc3c([nH]c4ccccc43)c21	2.96 µM (active)
c1ccc2c(-c3cnn4cc(-c5ccc(N6CCNCC6)cc5)cnc34)ccnc2c1	9.35 µM (active)
Cc1cc(OCCCc2c(C(=O)O)n(Cc3cccnc3)c3c(-c4c(COc5ccc(N6CCN([S+](C)(=O)[O-])CC6)cc5)nn(C)c4C)cccc23)cc(C)c1Cl	23.5 µM (active)
N[C@H](CSC(c1ccccc1)(c1ccccc1)c1ccccc1)C(=O)O	10.5 µM (active)
O=C1C(Cl)=C(NCCN2CCOCC2)C(=O)c2ncccc21	4.18 µM (active)
CCNc1cc(NC2CCC(O)CC2)nc(Nc2ccc3c(ccn3Cc3ccccc3)c2)n1 (stereo not drawn)	18.7 µM (active)
COc1ccc(-c2oc3c(CC=C(C)C)c(OC4O[C@H](CO)[C@@H](O)[C@H](O)[C@@H]4O)cc(O)c3c(=O)c2OC2O[C@@H](C)[C@H](O)[C@@H](O)[C@@H]2O)cc1 (stereo partly drawn)	20.9 µM (active)
CC(C)OC(=O)CCCC=CC[C@@H]1[C@H](C=C[C@@H](O)COc2cccc(C(F)(F)F)c2)[C@H](O)C[C@@H]1O	20.9 µM (active)
O=c1cc(N2CCOCC2)oc2c(-c3cccc4c3sc3ccccc34)cccc12	11.8 µM (active)
CNC(=O)c1ccccc1Sc1ccc2c(C=Cc3ccccn3)n[nH]c2c1	13.2 µM (active)
Clc1ccc(C(c2ccc(Cl)cc2)n2cc[n+](CC(OCc3ccc(Cl)cc3Cl)c3ccc(Cl)cc3Cl)c2)cc1 (stereo not drawn)	20.9 µM (active)
NS(=O)(=O)c1ccc(NC2=CC(=O)c3ccccc3C2=O)cc1	4.69 µM (active)
O=C(CCCCCCC(=O)Nc1ccccc1)NO	3.72 µM (active)
CC1(C)CCC[C@@]2(C)[C@@H]1CC[C@@]1(C)OC(=O)C[C@H]21	8.33 µM (active)
COCCOC(=O)C1=C(C)NC2=C(C(=O)CC(c3ccccc3OC)C2)C1c1cccc(O)c1 (stereo not drawn)	10.5 µM (active)
Cc1ccc(C(=O)Nc2cccc(C(F)(F)F)c2)cc1Nc1nc(-c2cccnc2)nc2c1cnn2C	14.8 µM (active)
CC=CCC=CCCC(=O)[C@H]1O[C@@H]1C(N)=O	18.7 µM (active)
O=C1c2c(O)cc(O)cc2O[C@H](c2cc(O)c(O)c(O)c2)[C@H]1O	20.9 µM (active)
NC(CO)(CO)CCc1ccc(Sc2cccc(OCc3ccccc3)c2)cc1Cl	26.4 µM (active)
COc1cc2ncnc(-n3nc(-c4ccccn4)nc3N)c2cc1OC	0.662 µM (active)
CCC(=O)NC[C@H](Cc1ccc(OCCc2nc(-c3ccccc3)oc2C)cc1)NC(C)=CC(=O)c1ccc(C(F)(F)F)cc1	18.7 µM (active)
CCc1ccc(OCc2ccccc2C(=O)Nc2ccc3nc(C)cc(N)c3c2)cc1	6.62 µM (active)
CC=C(C)C(=O)O[C@H]1C(C)=C[C@]23C(=O)[C@@H](C=C(CO)[C@@H](O)[C@]12O)[C@H]1[C@@H](C[C@H]3C)C1(C)C	0.0059 µM (active)
CCOC(=O)C1=C(N)Oc2ccc(Br)cc2C1C(C#N)C(=O)OCC (stereo not drawn)	20.9 µM (active)
CCOc1ccc(Nc2nc(-c3c(C)nc4ccccn34)cs2)cc1	0.264 µM (active)
N#CC(=C(N)Sc1ccccc1N)C(C#N)=C(N)Sc1ccccc1N	1.32 µM (active)
COc1cc2nc(-c3ccc(N4CCN(C)CC4)cc3)nc(NCCN3CCOCC3)c2cc1OC	0.132 µM (active)
O=C1NC(=O)C(=Cc2ccc3nccnc3c2)S1	6.45 µM (active)
COc1ncc(-c2ccc3nccc(-c4ccnnc4)c3c2)cc1NS(=O)(=O)c1ccc(F)cc1F	0.0118 µM (active)
O=C(Nc1ccccc1-c1cn2c(CN3CCNCC3)csc2n1)c1cnc2ccccc2n1	4.69 µM (active)
CO[C@H]1C=CC=C(C)C(=O)NC2=CC(=O)C(NCCN(C)C)=C(C[C@@H](C)C[C@H](OC)[C@@H](O)[C@@H](C)C=C(C)[C@@H]1OC(N)=O)C2=O	0.372 µM (active)
Cc1[nH]c(C=C2C(=O)Nc3ccc(S(=O)(=O)Cc4c(Cl)cccc4Cl)cc32)c(C)c1C(=O)N1CCC[C@H]1CN1CCCC1	20.9 µM (active)
Cc1c(O)cccc1C(=O)N[C@@H](CSc1ccccc1)[C@H](O)CN1C[C@H]2CCCC[C@@H]2C[C@@H]1C(=O)NC(C)(C)C	20.9 µM (active)
O=C(O)C(O)Cc1ccc(O)c(O)c1 (stereo not drawn)	11.8 µM (active)
C[C@H](NC(=O)c1sccc1OCc1ccc(Cl)cc1)c1ccccc1	18.7 µM (active)
NS(=O)(=O)c1cccc2c1C(=O)c1cccc(O)c1C2=O	0.372 µM (active)

----------
- PROTOCOL_DESCRIPTION: Quantitative High-Throughput drug screen in 47 multiple myeloma cell lines against the NCATS MIPE library collection: EJM_DSMZ cell viability assay (AID 1918926; note: nearly all actives have a fitted effect of over 30% in size; note: potency is the fitted concentration of half-maximal effect)
- CONDITION_DESCRIPTION: EJM myeloma cell viability, CellTiter-Glo ATP, 48 h; series mostly up to 45.8 µM
Results filed as inconclusive are left out. Calls of active or inactive are those of the source. Calls follow the shape of the dose curve; as a rule, active = well fitted cell-killing curve with a large enough effect; inconclusive = small, poorly fitted or top-dose-only effect, or effect the other way; inactive = no such curve, though single readings can be large or run the other way.

COMPOUND	Potency
Cc1c(NC(=O)c2ccc(C(C)(C)C)cc2)cccc1-c1cn(C)c(=O)c(Nc2ccc(C(=O)N3CCOCC3)cc2)n1	18.7 µM (active)
CON=C(C(=O)N[C@@H]1C(=O)N2C(C(=O)OCOC(=O)C(C)(C)C)=C(C=Cc3scnc3C)CS[C@H]12)c1csc(N)n1	inactive
CC1(C)CCC[C@@]2(C)[C@@H]1CC[C@@]1(C)OC(=O)C[C@H]21	inactive
NS(=O)(=O)c1ccc(NC2=CC(=O)c3ccccc3C2=O)cc1	inactive
CC(C)OC(=O)C(C)(C)Oc1ccc(C(=O)c2ccc(Cl)cc2)cc1	10.5 µM (active)
CC1(C)CCC(CN2CCN(c3ccc(C(=O)NS(=O)(=O)c4ccc(NCC5CCOCC5)c([N+](=O)[O-])c4)c(Oc4cnc5[nH]ccc5c4)c3)CC2)=C(c2ccc(Cl)cc2)C1	20.9 µM (active)
N[C@H](CSC(c1ccccc1)(c1ccccc1)c1ccccc1)C(=O)O	18.7 µM (active)
CCNc1cc(NC2CCC(O)CC2)nc(Nc2ccc3c(ccn3Cc3ccccc3)c2)n1 (stereo not drawn)	18.7 µM (active)

----------
- PROTOCOL_DESCRIPTION: Quantitative High-Throughput drug screen in 47 multiple myeloma cell lines against the NCATS MIPE library collection: MM1S_ATCC cell viability assay (AID 1918980); note: nearly all actives have a fitted effect of over 45% in size
- CONDITION_DESCRIPTION: MM1S myeloma viability, CellTiter-Glo ATP luminescence, 48 h; series mostly up to 45.8 µM
Records with an inconclusive call do not appear. The source made the active and inactive calls. The call rests on the fitted dose curve; in most records, active means well fitted cell-killing curve with a large enough effect; inconclusive means small, poorly fitted or top-dose-only effect, or effect the other way; inactive means no such curve, though single readings can be large or run the other way.
Possible outcomes: active, inactive

MOLECULE	DISCRETE_LABEL
CN1C[C@H]2c3ccccc3Oc3ccc(Cl)cc3[C@@H]2C1	inactive
O=c1c(O)c(-c2ccc(O)cc2)oc2cc(O)cc(O)c12	active
Cc1nnc(C(C)C)n1C1C[C@H]2CC[C@@H](C1)N2CC[C@H](NC(=O)C1CCC(F)(F)CC1)c1ccccc1 (stereo not given in full)	active
COc1ccc(-c2nc(N3CCOCC3)c3sc(CN(C)c4ncc(C(=O)NO)cn4)cc3n2)cn1	inactive
O=c1c(-c2ccc(O)cc2)coc2cc(O)ccc12	active
CC1(C)S[C@H]2[C@H](NC(=O)[C@@H](N)c3ccc(O)cc3)C(=O)N2[C@@H]1C(=O)O	active
CC[C@@]1(O)C[C@H](O[C@H]2C[C@H](N(C)C)[C@H](O[C@H]3C[C@H](O)[C@H](O[C@H]4CCC(=O)[C@H](C)O4)[C@H](C)O3)[C@H](C)O2)c2c(cc3c(c2O)C(=O)c2c(O)cccc2C3=O)[C@@H]1C(=O)OC	active
O=C(O)C(O)Cc1ccc(O)c(O)c1 (stereo not given)	active
COc1cccc2c1CCCC2CCCN1CCN(C2CCCCC2)CC1 (stereo not given)	active
COc1ccc(-c2oc3c(CC=C(C)C)c(OC4O[C@H](CO)[C@@H](O)[C@H](O)[C@@H]4O)cc(O)c3c(=O)c2OC2O[C@@H](C)[C@H](O)[C@@H](O)[C@@H]2O)cc1 (stereo not given in full)	active
COc1cc2nc(-c3ccc(N4CCN(C)CC4)cc3)nc(NCCN3CCOCC3)c2cc1OC	active
N#CC1(c2ccc(NC(=O)c3cccnc3NCc3ccncc3)cc2)CCCC1	inactive
Oc1ccc(C2=Cc3ccc(O)cc3OC2)cc1	active
CCn1c(C(=O)N(C2CC2)C2CC2)cc2c3c(ncn3C)c(Nc3cc(C)n(C)n3)nc21	inactive
CC1CCC(C(=O)N(c2cc(C#CC(C)(C)C)sc2C(=O)O)C2CCC(O)CC2)CC1 (stereo not given)	inactive
CCCCCN(C)CCC(O)(P(=O)(O)O)P(=O)(O)O	inactive
CN(C)c1cc(NC(=O)CNC(C)(C)C)c(O)c2c1C[C@@H]1C[C@H]3[C@H](N(C)C)C(=O)C(C(N)=O)=C(O)[C@@]3(O)C(=O)C1=C2O	inactive
CC(C)=CC[C@@H](O)C1=CC(=O)c2c(O)ccc(O)c2C1=O	active
O=c1c(-c2ccc(O)cc2)coc2cc(O[C@@H]3O[C@H](CO)[C@H](O)[C@H](O)[C@H]3O)ccc12	inactive
O=c1cc(-c2ccccc2)oc2cc(O)c(O)c(O)c12	active
Cc1c(NC(=O)c2ccc(C(C)(C)C)cc2)cccc1-c1cn(C)c(=O)c(Nc2ccc(C(=O)N3CCOCC3)cc2)n1	active
NC(=O)c1cccc(-c2cc(Nc3ccc(OC(F)(F)F)cc3)ncn2)c1	inactive
CC[C@]1(O)C[C@@H]2CN(CCc3c([nH]c4ccccc34)[C@@](C(=O)OC)(c3cc4c(cc3OC)N(C=O)[C@@H]3C45CCN4CC=C[C@](CC)([C@H]45)[C@@H](OC(C)=O)[C@]3(O)C(=O)OC)C2)C1 (stereo not given in full)	active
O=C(OCC#CCSc1nnc(-c2cccc3ccccc23)o1)c1cc2ccccc2s1	inactive
NC(CO)(CO)CCc1ccc(Sc2cccc(OCc3ccccc3)c2)cc1Cl	active
Cn1c(N2CCCCS2(=O)=O)nc(C(=O)NCc2ccc(F)cc2)c(O)c1=O	inactive
O=C1C(Cl)=C(NCCN2CCOCC2)C(=O)c2ncccc21	active
C[C@@H]1CCN(C(=O)CC#N)C[C@H]1N(C)c1ncnc2[nH]ccc12	active
CC[C@H]1OC(=O)[C@H](C)[C@@H](O[C@H]2C[C@@](C)(OC)[C@@H](O)[C@H](C)O2)[C@H](C)[C@@H](O[C@@H]2O[C@H](C)C[C@H](N(C)C)[C@@H]2O)[C@](C)(O)C[C@@H](C)CN(C)[C@H](C)[C@@H](O)[C@]1(C)O	active
CC=CC(=O)N(CC)c1ccccc1C	active
Cc1ccc(C(=O)Nc2cccc(C(F)(F)F)c2)cc1Nc1nc(-c2cccnc2)nc2c1cnn2C	active
O=C(N[C@@H](c1ccccc1)[C@@H]1CCCCN1)c1cccc(C(F)(F)F)c1Cl	active
CC(C)n1cnc2c(NCCCCCCNC(=O)OC(C)(C)C)nc(NCCO)nc21	active
COc1ccc(-c2coc3cc(O)ccc3c2=O)cc1	inactive
O=C(NCc1ccncc1)C12C[C@H]3C[C@@H](C1)CC(c1ccc(Cl)cc1)(C3)C2	active
